# activity coefficient per entry
assay: activity coefficient (dimensionless); of the first substance listed, at infinite dilution; xn = mol fraction of the nth substance listed; conditions: 358.15 K; 101.33 kPa; Liquid; Chromatography; x1 = 0
outcome.measure: activity coefficient

{"compound": "C=CCCCCCC [oct-1-ene] + CCCCCCCCCCCC[N+](C)(C)CCOc1ccccc1.N#C[N-]C#N", "outcome.measure": "activity coefficient", "observed.result": 5.2}
{"compound": "Cc1ccccc1 [toluene] + CCCCCCCCCCCC[N+](C)(C)CCOc1ccccc1.N#C[N-]C#N", "outcome.measure": "activity coefficient", "observed.result": 1.19}
{"compound": "C1COCCO1 [1,4-dioxane] + CCCCCCCCCCCC[N+](C)(C)CCOc1ccccc1.O=S(=O)([N-]S(=O)(=O)C(F)(F)F)C(F)(F)F", "outcome.measure": "activity coefficient", "observed.result": 0.584}
{"compound": "C1=CCCCC1 [cyclohexene] + CCCCCCCCCCCC[N+](C)(C)CCOc1ccccc1.O=S(=O)([N-]S(=O)(=O)C(F)(F)F)C(F)(F)F", "outcome.measure": "activity coefficient", "observed.result": 1.65}
{"compound": "CCC(C)(C)C [2,2-dimethylbutane] + CCCCCCCCCCCC[N+](C)(C)CCOc1ccccc1.O=S(=O)([N-]S(=O)(=O)C(F)(F)F)C(F)(F)F", "outcome.measure": "activity coefficient", "observed.result": 3.15}
{"compound": "CC1CCCCC1 [methylcyclohexane] + CCCCCCCCCCCC[N+](C)(C)CCOc1ccccc1.O=S(=O)([N-]S(=O)(=O)C(F)(F)F)C(F)(F)F", "outcome.measure": "activity coefficient", "observed.result": 2.51}
{"compound": "CCCCCCCCCC [decane] + CCCCCCCCCCCC[N+](C)(C)CCOc1ccccc1.O=S(=O)([N-]S(=O)(=O)C(F)(F)F)C(F)(F)F", "outcome.measure": "activity coefficient", "observed.result": 5.98}
{"compound": "C#CCCC [1-pentyne] + CCCCCCCCCCCC[N+](C)(C)CCOc1ccccc1.N#C[N-]C#N", "outcome.measure": "activity coefficient", "observed.result": 1.66}
{"compound": "CCCCCCC [heptane] + CCCCCCCCCCCC[N+](C)(C)CCOc1ccccc1.O=S(=O)([N-]S(=O)(=O)C(F)(F)F)C(F)(F)F", "outcome.measure": "activity coefficient", "observed.result": 3.75}
{"compound": "C1CCCCC1 [cyclohexane] + CCCCCCCCCCCC[N+](C)(C)CCOc1ccccc1.N#C[N-]C#N", "outcome.measure": "activity coefficient", "observed.result": 3.2}
{"compound": "CCCCCCCCCC [decane] + CCCCCCCCCCCC[N+](C)(C)CCOc1ccccc1.N#C[N-]C#N", "outcome.measure": "activity coefficient", "observed.result": 9.45}
{"compound": "CCOC(C)(C)C [2-ethoxy-2-methylpropane] + CCCCCCCCCCCC[N+](C)(C)CCOc1ccccc1.N#C[N-]C#N", "outcome.measure": "activity coefficient", "observed.result": 3.9}
{"compound": "CC(C)(C)O [2-methylpropan-2-ol] + CCCCCCCCCCCC[N+](C)(C)CCOc1ccccc1.N#C[N-]C#N", "outcome.measure": "activity coefficient", "observed.result": 0.584}
{"compound": "C=C(C)c1ccccc1 [(1-methylethenyl)benzene] + CCCCCCCCCCCC[N+](C)(C)CCOc1ccccc1.N#C[N-]C#N", "outcome.measure": "activity coefficient", "observed.result": 1.32}

---

# activity coefficient per entry
test: activity coefficient (dimensionless); of the first substance listed, at infinite dilution; xn = mol fraction of the nth substance listed; conditions: 328.15 K; 101.33 kPa; Liquid; Chromatography; x1 = 0

{"molecule": "CC(C)=O [acetone] + CCCCCCCCCCCC[N+](C)(C)CCOc1ccccc1.O=S(=O)([N-]S(=O)(=O)C(F)(F)F)C(F)(F)F", "activity coefficient": 0.353}
{"molecule": "CC(C)c1ccccc1 [isopropylbenzene] + CCCCCCCCCCCC[N+](C)(C)CCOc1ccccc1.N#C[N-]C#N", "activity coefficient": 1.82}
{"molecule": "C#CCCCCC [1-heptyne] + CCCCCCCCCCCC[N+](C)(C)CCOc1ccccc1.O=S(=O)([N-]S(=O)(=O)C(F)(F)F)C(F)(F)F", "activity coefficient": 1.53}
{"molecule": "CCCC(C)=O [pentan-2-one] + CCCCCCCCCCCC[N+](C)(C)CCOc1ccccc1.O=S(=O)([N-]S(=O)(=O)C(F)(F)F)C(F)(F)F", "activity coefficient": 0.41}
{"molecule": "CCC(=O)CC [pentan-3-one] + CCCCCCCCCCCC[N+](C)(C)CCOc1ccccc1.O=S(=O)([N-]S(=O)(=O)C(F)(F)F)C(F)(F)F", "activity coefficient": 0.412}
{"molecule": "CC(C)OC(C)C [diisopropyl ether] + CCCCCCCCCCCC[N+](C)(C)CCOc1ccccc1.O=S(=O)([N-]S(=O)(=O)C(F)(F)F)C(F)(F)F", "activity coefficient": 1.97}
{"molecule": "CC(C)CO [2-methyl-1-propanol] + CCCCCCCCCCCC[N+](C)(C)CCOc1ccccc1.N#C[N-]C#N", "activity coefficient": 0.451}
{"molecule": "C1CCCCCC1 [cycloheptane] + CCCCCCCCCCCC[N+](C)(C)CCOc1ccccc1.N#C[N-]C#N", "activity coefficient": 3.26}
{"molecule": "COC(C)=O [methyl ethanoate] + CCCCCCCCCCCC[N+](C)(C)CCOc1ccccc1.N#C[N-]C#N", "activity coefficient": 1.03}
{"molecule": "CCCC(C)=O [pentan-2-one] + CCCCCCCCCCCC[N+](C)(C)CCOc1ccccc1.N#C[N-]C#N", "activity coefficient": 0.899}
{"molecule": "CCCCCCCCC [nonane] + CCCCCCCCCCCC[N+](C)(C)CCOc1ccccc1.N#C[N-]C#N", "activity coefficient": 7.69}
{"molecule": "CCC(C)(C)OC [2-methoxy-2-methylbutane] + CCCCCCCCCCCC[N+](C)(C)CCOc1ccccc1.O=S(=O)([N-]S(=O)(=O)C(F)(F)F)C(F)(F)F", "activity coefficient": 1.29}
{"molecule": "C#CCCCCC [1-heptyne] + CCCCCCCCCCCC[N+](C)(C)CCOc1ccccc1.N#C[N-]C#N", "activity coefficient": 1.93}
{"molecule": "Cc1cccc(C)c1 [1,3-dimethylbenzene] + CCCCCCCCCCCC[N+](C)(C)CCOc1ccccc1.N#C[N-]C#N", "activity coefficient": 1.38}
{"molecule": "C=CCCC [1-pentene] + CCCCCCCCCCCC[N+](C)(C)CCOc1ccccc1.N#C[N-]C#N", "activity coefficient": 3.3}

---

test: activity coefficient (dimensionless); of the first substance listed, at infinite dilution; xn = mol fraction of the nth substance listed; conditions: 328.15 K; 101.33 kPa; Liquid; Chromatography; x1 = 0
Label key: 1 means activity coefficient under 0.9; -1 means activity coefficient of 0.9 or more.

{"compound": "CCCCO [butan-1-ol] + CCCCCCCCCCCC[N+](C)(C)CCOc1ccccc1.N#C[N-]C#N", "category.label": 1}
{"compound": "C1CCCCC1 [cyclohexane] + CCCCCCCCCCCC[N+](C)(C)CCOc1ccccc1.O=S(=O)([N-]S(=O)(=O)C(F)(F)F)C(F)(F)F", "category.label": -1}
{"compound": "Cc1ccccc1 [toluene] + CCCCCCCCCCCC[N+](C)(C)CCOc1ccccc1.O=S(=O)([N-]S(=O)(=O)C(F)(F)F)C(F)(F)F", "category.label": 1}
{"compound": "C#CCCCCCC [1-octyne] + CCCCCCCCCCCC[N+](C)(C)CCOc1ccccc1.O=S(=O)([N-]S(=O)(=O)C(F)(F)F)C(F)(F)F", "category.label": -1}
{"compound": "CCCCCO [pentan-1-ol] + CCCCCCCCCCCC[N+](C)(C)CCOc1ccccc1.O=S(=O)([N-]S(=O)(=O)C(F)(F)F)C(F)(F)F", "category.label": -1}
{"compound": "CCCCCCCCCC [decane] + CCCCCCCCCCCC[N+](C)(C)CCOc1ccccc1.O=S(=O)([N-]S(=O)(=O)C(F)(F)F)C(F)(F)F", "category.label": -1}
{"compound": "CCc1ccccc1 [ethylbenzene] + CCCCCCCCCCCC[N+](C)(C)CCOc1ccccc1.O=S(=O)([N-]S(=O)(=O)C(F)(F)F)C(F)(F)F", "category.label": -1}

---

assay: activity coefficient (dimensionless); of the first substance listed, at infinite dilution; xn = mol fraction of the nth substance listed; settings: 358.15 K; 101.33 kPa; Liquid; Chromatography; x1 = 0

{"compound": "C1CCCCCC1 [cycloheptane] + CCCCCCCCCCCC[N+](C)(C)CCOc1ccccc1.N#C[N-]C#N", "activity coefficient": 3.34}
{"compound": "CC(C)=O [acetone] + CCCCCCCCCCCC[N+](C)(C)CCOc1ccccc1.N#C[N-]C#N", "activity coefficient": 0.791}
{"compound": "Cc1ccc(C)cc1 [1,4-dimethylbenzene] + CCCCCCCCCCCC[N+](C)(C)CCOc1ccccc1.O=S(=O)([N-]S(=O)(=O)C(F)(F)F)C(F)(F)F", "activity coefficient": 1.08}
{"compound": "CC(C)CO [2-methyl-1-propanol] + CCCCCCCCCCCC[N+](C)(C)CCOc1ccccc1.N#C[N-]C#N", "activity coefficient": 0.477}

src = the NIST ThermoML archive (doi:10.1016/j.fluid.2018.09.024)
